Biological target: ZIKV NS2B/NS3 (Zika virus)
Construct: tested against the nonstructural protease of ZIKV (NS2B/NS3)
Assay: ZIKV NS2B/NS3 protease fluorogenic substrate assay
Type: biochemical
Conditions: ZIKV NS2B/NS3, 20 μM compound; read-out: screening at 20 μM (%)
Each entry below lists one item and its recorded inhibition at 20 µM value.
REPORTED_PROPERTY: inhibition at 20 µM (%)

1) CCC=CCCOC(=O)c1cc(O)c(O)c(O)c1 [Compound 2k]    86
2) C=CCOC(=O)c1cc(O)c(O)c(O)c1 [Compound 2d]    25
3) C=CCCOC(=O)c1cc(O)c(O)c(O)c1 [Compound 2c]    25
4) CC(C)OC(=O)c1cc(O)c(O)c(O)c1 [Compound 2a]    51
5) O=C(OCCc1ccccc1)c1cc(O)c(O)c(O)c1 [Compound 2j]    50
6) CC(C)CCOC(=O)c1cc(O)c(O)c(O)c1 [Compound 2e]    72

* * *

Assay: Cytotoxicity against THP-1 cells (resazurin)
Type: cell-based
Settings: human, THP-1 cells differentiated with PMA, read-out: CC50 ± SD (μM) THP-1
Please use TRUE for CC50 at 67 h under 50 µM and FALSE for everything else, ties included.

1. C=CCOC(=O)c1cc(O)c(O)c(O)c1 [Compound 2d]    TRUE
2. COC(=O)c1cc(OC)c(OC)c(OC)c1 [Compound 2l, Methyl 3,4,5-trimethoxybenzoate]    FALSE
3. COC(=O)c1cc(O)c(O)c(O)c1 [Compound 2, methyl gallate]    FALSE
4. C=CC(C)(CCC=C(C)C)OC(=O)c1cc(O)c(O)c(O)c1 (stereo not shown) [Compound 2i]    FALSE
5. CC(C)OC(=O)c1cc(O)c(O)c(O)c1 [Compound 2a]    FALSE
6. CC(C)=CCCC(C)=CCOC(=O)c1cc(O)c(O)c(O)c1 [Compound 2f]    FALSE
7. CC(C)CCOC(=O)c1cc(O)c(O)c(O)c1 [Compound 2e]    TRUE
8. C=CCCOC(=O)c1cc(O)c(O)c(O)c1 [Compound 2c]    TRUE
9. CC(C)=CCCC(C)CCOC(=O)c1cc(O)c(O)c(O)c1 (stereo not shown) [Compound 2g]    TRUE
10. O=C(OCCc1ccccc1)c1cc(O)c(O)c(O)c1 [Compound 2j]    TRUE

* * *

Biological target: SARS-CoV-2 M^pro (Severe acute respiratory syndrome coronavirus 2, UniProt P0DTD1)
Please use criterion met for IC50 under 10 µM and criterion not met for everything else, ties included.

1. C=CCCOC(=O)c1cc(O)c(O)c(O)c1    criterion not met
2. CC(C)=CCCC(C)CCOC(=O)c1cc(O)c(O)c(O)c1 (centres unmarked)    criterion not met
3. CC(C)CCOC(=O)c1cc(O)c(O)c(O)c1    criterion met
4. COC(=O)c1cc(O)c(O)c(O)c1 [Compound 2, methyl gallate]    criterion met
5. C=CC(C)(CCC=C(C)C)OC(=O)c1cc(O)c(O)c(O)c1 (centres unmarked)    criterion met
6. CC(C)=CCCC(C)=CCOC(=O)c1cc(O)c(O)c(O)c1    criterion met
7. C=CCOC(=O)c1cc(O)c(O)c(O)c1    criterion not met
8. CC(C)OC(=O)c1cc(O)c(O)c(O)c1    criterion not met

* * *

Target: DENV-2 NS2B/NS3 (Dengue virus type 2)
Sequence (P29990 1398-1437): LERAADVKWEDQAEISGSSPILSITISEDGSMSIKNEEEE
Sequence (P29990 1476-1653): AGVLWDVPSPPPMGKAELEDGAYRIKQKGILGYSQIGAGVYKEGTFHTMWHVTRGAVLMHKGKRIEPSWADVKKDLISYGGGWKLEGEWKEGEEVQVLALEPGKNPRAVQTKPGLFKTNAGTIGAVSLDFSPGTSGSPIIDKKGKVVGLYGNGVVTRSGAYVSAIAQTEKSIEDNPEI
Test: DENV-2 NS2B/NS3 protease fluorogenic substrate assay
Conditions: read-out: screening at 100 μM (%), DENV-2 NS2B/NS3, 100 μM compound
Each entry below lists one item and its recorded inhibition at 100 µM value.
REPORTED_PROPERTY: inhibition at 100 µM (%)

1) C=CCOC(=O)c1cc(O)c(O)c(O)c1 [Compound 2d]    29
2) CCCCCCCCCCCCCCOC(=O)c1cc(O)c(O)c(O)c1 [Compound 2b]    21
3) O=C(OCCCc1ccccc1)c1cc(O)c(O)c(O)c1 [Compound 2h]    20
4) CC(C)OC(=O)c1cc(O)c(O)c(O)c1 [Compound 2a]    48
5) CC(C)=CCCC(C)CCOC(=O)c1cc(O)c(O)c(O)c1 (stereo not shown) [Compound 2g]    28
6) C=CCCOC(=O)c1cc(O)c(O)c(O)c1 [Compound 2c]    18
7) O=C(OCCc1ccccc1)c1cc(O)c(O)c(O)c1 [Compound 2j]    22
8) CCC=CCCOC(=O)c1cc(O)c(O)c(O)c1 [Compound 2k]    28

* * *

Each entry below lists one item and its recorded IC50 value.
Molecular target: ZIKV NS2B/NS3 (Zika virus)
Construct: tested against the nonstructural protease of ZIKV (NS2B/NS3)
Experiment: ZIKV NS2B/NS3 protease fluorogenic substrate assay
Format: biochemical
Settings: IC50 at substrate 50 μM, binding mechanism study, Boc-Gly-Arg-Arg-AMC 50 μM
REPORTED_PROPERTY: IC50 (µM)

1. CC(C)=CCCC(C)=CCOC(=O)c1cc(O)c(O)c(O)c1    3.2
2. CC(C)=CCCC(C)CCOC(=O)c1cc(O)c(O)c(O)c1 (centres unmarked)    2.93

* * *

Target: ZIKV NS2B/NS3 (Zika virus, UniProt Q32ZE1)
Construct: tested against the nonstructural protease of ZIKV (NS2B/NS3)
Sequence (Q32ZE1 1421-1460): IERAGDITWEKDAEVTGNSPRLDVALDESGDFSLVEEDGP
Sequence (Q32ZE1 1499-1676): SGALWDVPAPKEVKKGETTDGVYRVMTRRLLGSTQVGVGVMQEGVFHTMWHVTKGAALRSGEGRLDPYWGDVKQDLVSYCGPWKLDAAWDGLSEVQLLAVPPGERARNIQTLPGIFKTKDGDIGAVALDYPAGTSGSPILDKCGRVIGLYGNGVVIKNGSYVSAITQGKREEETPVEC
Assay: ZIKV NS2B/NS3 protease fluorogenic substrate assay
Format: biochemical
Details: IC50 at substrate 200 μM, binding mechanism study, Boc-Gly-Arg-Arg-AMC 200 μM
pIC50: −log10 of the molar value.
REPORTED_PROPERTY: pIC50

1) CC(C)=CCCC(C)CCOC(=O)c1cc(O)c(O)c(O)c1 (centres unmarked) [Compound 2g]    5.69
2) CC(C)=CCCC(C)=CCOC(=O)c1cc(O)c(O)c(O)c1 [Compound 2f]    5.42

* * *

Target: ZIKV NS2B/NS3 (Zika virus, UniProt Q32ZE1)
Construct: tested against the nonstructural protease of ZIKV (NS2B/NS3)
Experiment: ZIKV NS2B/NS3 protease fluorogenic substrate assay
Assay type: biochemical
Conditions: ZIKV NS2B/NS3, substrate 100 μM; read-out: IC50
Each entry below lists one item and its recorded IC50 value.
REPORTED_PROPERTY: IC50 (µM)

1. C=CCOC(=O)c1cc(O)c(O)c(O)c1    92.5
2. CC(C)CCOC(=O)c1cc(O)c(O)c(O)c1    13
3. CCCCCCCCCCCCCCOC(=O)c1cc(O)c(O)c(O)c1    84.9
4. CC(C)=CCCC(C)=CCOC(=O)c1cc(O)c(O)c(O)c1    2.7
5. CCC=CCCOC(=O)c1cc(O)c(O)c(O)c1    6.1

* * *

Target: SARS-CoV-2 M^pro (Severe acute respiratory syndrome coronavirus 2, UniProt P0DTD1)
Construct: 30 μL of Mpro enzyme (Sigma-Aldrich) at a final concentration of 10 μg/mL; purchased Sigma-Aldrich
Assay: SARS-CoV-2 M^pro inhibition assay (chromogenic peptide substrate)
Type: biochemical
Details: inhibitory percentage against M^pro at 200 μM; NA: no activity; read-out: effect at 200 μM (%)
Each entry below lists one item and its recorded inhibition at 200 µM value.
REPORTED_PROPERTY: inhibition at 200 µM (%)

1. COC(=O)c1cc(OC)c(OC)c(OC)c1 [Compound 2l, Methyl 3,4,5-trimethoxybenzoate]    55.5
2. O=C(OCCCc1ccccc1)c1cc(O)c(O)c(O)c1 [Compound 2h]    45.1
3. C=CCCOC(=O)c1cc(O)c(O)c(O)c1 [Compound 2c]    80.4
4. CC(C)=CCCC(C)=CCOC(=O)c1cc(O)c(O)c(O)c1 [Compound 2f]    97
5. CC(C)OC(=O)c1cc(O)c(O)c(O)c1 [Compound 2a]    78
6. C=CCOC(=O)c1cc(O)c(O)c(O)c1 [Compound 2d]    94.3
7. CC(C)CCOC(=O)c1cc(O)c(O)c(O)c1 [Compound 2e]    99.5
8. CCC=CCCOC(=O)c1cc(O)c(O)c(O)c1 [Compound 2k]    41.9
9. CC(C)=CCCC(C)CCOC(=O)c1cc(O)c(O)c(O)c1 (centres unmarked) [Compound 2g]    73.3
10. O=C(OCCc1ccccc1)c1cc(O)c(O)c(O)c1 [Compound 2j]    60.8
11. C=CC(C)(CCC=C(C)C)OC(=O)c1cc(O)c(O)c(O)c1 (centres unmarked) [Compound 2i]    80

* * *

Each entry below lists one item and its recorded inhibition at 100 µM value.
Molecular target: ZIKV NS2B/NS3 (Zika virus, UniProt Q32ZE1)
Construct: tested against the nonstructural protease of ZIKV (NS2B/NS3)
Test: ZIKV NS2B/NS3 protease fluorogenic substrate assay
Assay type: biochemical
Details: ZIKV NS2B/NS3, 100 μM compound; read-out: screening at 100 μM (%)
REPORTED_PROPERTY: inhibition at 100 µM (%)

1) CC(C)CCOC(=O)c1cc(O)c(O)c(O)c1 [Compound 2e]    99
2) C=CCCOC(=O)c1cc(O)c(O)c(O)c1 [Compound 2c]    48
3) CCC=CCCOC(=O)c1cc(O)c(O)c(O)c1 [Compound 2k]    100
4) CC(C)OC(=O)c1cc(O)c(O)c(O)c1 [Compound 2a]    98
5) O=C(OCCc1ccccc1)c1cc(O)c(O)c(O)c1 [Compound 2j]    82
6) C=CCOC(=O)c1cc(O)c(O)c(O)c1 [Compound 2d]    53
7) O=C(OCCCc1ccccc1)c1cc(O)c(O)c(O)c1 [Compound 2h]    99
8) CC(C)=CCCC(C)CCOC(=O)c1cc(O)c(O)c(O)c1 (stereo not drawn) [Compound 2g]    97
9) CC(C)=CCCC(C)=CCOC(=O)c1cc(O)c(O)c(O)c1 [Compound 2f]    99
